meta.source: patent US10925971B2

Tested on: Macaca fascicularis PRLR (mfPRLR.mmh; SEQ ID NO:403)
Sequence (as listed by the source): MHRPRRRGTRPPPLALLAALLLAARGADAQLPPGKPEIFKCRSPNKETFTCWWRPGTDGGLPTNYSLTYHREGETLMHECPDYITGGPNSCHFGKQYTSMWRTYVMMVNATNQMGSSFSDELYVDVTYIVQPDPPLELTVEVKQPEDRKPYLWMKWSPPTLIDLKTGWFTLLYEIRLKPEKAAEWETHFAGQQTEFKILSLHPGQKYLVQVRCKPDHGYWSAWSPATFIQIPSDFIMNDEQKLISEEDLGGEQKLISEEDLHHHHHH
Assay: Surface plasmon resonance (Biacore T200), antibody-capture format
Assay type: binding
Details: 25° C., analyte mfPRLR.mmh
Experimental: Antibodies, expressed as human IgG1 Fc (i.e., “H1H” designations), were captured onto an anti-human Fc sensor surface (mAb-capture format), and soluble monomeric (hPRLR.mmh; SEQ ID NO:401, or Macaca fascicularis (mf) PRLR.mmh; SEQ ID NO:403) or dimeric (hPRLR.mFc; SEQ ID NO:402) PRLR protein was injected over the sensor surface. Measurements were conducted on a T200 Biacore instrument. […]
Endpoint name: ka (M/s)
Report only the number, with the unit M/s understood.

Incoming: Could you share which ka value was measured for H1H6959N2: anti-PRLR antibody, human IgG1 Fc form of H2M6959N2 of Table 1; HCVR/LCVR SEQ ID NOs 306/314 (antibody, V domains shown) VH: EVQLVESGGGLVQPGRSLRLSCAASGFTFDDYAMHWVRQAPGKGLEWVSGISWHSGIIGYADSVKGRFTISRDNAKNSLYLQMNSLRTEDAALYYCAKIGSYFYFDSWGQGTLVTVSS VL: EIVLTQSPGTLSLSPGERATLSCRASQSVSSNYLAWYQQKPGQAPRLLIYGASSRATGIPDRFSGSGSGTDFTLTISRLEPEDFAVYYCQQFGSSGYTFGQGTNLEIK ?
Outgoing: 129000

Incoming: Could you share which ka value was measured for H1H6774P: fully human anti-PRLR antibody, human IgG1 Fc; HCVR/LCVR SEQ ID NOs 34/42 (antibody, V domains shown) VH: EVQLVESGGGLAQPGGSLRLSCVASGFTFSTYWMSWVRQAPGKGLDWVGNIKQDGSEQNYVDSVRGRFTISRDNAKNSLFLQMNSLRAEDTGVYYCATLLTKGDYWGQGTLVTVSS VL: DIQMTQSPSSLSASVGDSVTITCRASQDISNYLDWFQQKPGKAPKSLIYAASILQGGVPSRFSGSGYGTDFTLTISSLQPEDFATYYCRQYKTYPFTFGPGTKVDIK ?
Outgoing: 495000
